Test System: Albumin (Bos taurus)
Sequence (P02769 whole entry): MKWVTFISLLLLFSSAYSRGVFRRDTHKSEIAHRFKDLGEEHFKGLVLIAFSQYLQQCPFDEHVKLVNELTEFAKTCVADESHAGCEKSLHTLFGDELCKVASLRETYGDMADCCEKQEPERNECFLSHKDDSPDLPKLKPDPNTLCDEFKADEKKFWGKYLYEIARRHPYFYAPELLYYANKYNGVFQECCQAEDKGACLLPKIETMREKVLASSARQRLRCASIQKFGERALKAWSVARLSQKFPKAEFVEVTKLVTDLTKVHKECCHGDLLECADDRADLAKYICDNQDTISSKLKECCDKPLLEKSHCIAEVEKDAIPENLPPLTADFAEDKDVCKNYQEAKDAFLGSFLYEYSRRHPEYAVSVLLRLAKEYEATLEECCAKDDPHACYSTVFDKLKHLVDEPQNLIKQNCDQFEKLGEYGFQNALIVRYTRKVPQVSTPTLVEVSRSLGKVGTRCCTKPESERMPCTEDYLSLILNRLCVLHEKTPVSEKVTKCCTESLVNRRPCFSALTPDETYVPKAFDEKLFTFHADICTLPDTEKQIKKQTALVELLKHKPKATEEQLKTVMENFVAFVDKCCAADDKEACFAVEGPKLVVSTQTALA
Method Notes: Counterscreen for inhibitors of T-cell receptor (TCR)-CD3 interaction: Fluorescence-based biochemical high throughput dose response assay to identify inhibitors of T-cell receptor (TCR)-CD3 interaction using a TAMRA-labeled BSA probe.
Type: functional
Activity calls are given as the source filed them. How the calls were made is not given here.
Would you mind telling me the reported IC50 of each entry?

Prompt: Recorded IC50 for O=C(CCl)NNC(=O)c1c(O)c2ccccc2[nH]c1=O , please?
Response: > 94 µM (inactive)

Prompt: Try this compound too: Cc1ccccc1C(=O)Nc1cccc(C(=O)N/N=C/c2cc(Cl)cc([N+](=O)[O-])c2O)c1
Response: > 94.1 µM (inactive)

Prompt: What do you get for Cc1noc(C)c1COc1ccc(C(=O)NNC(=O)c2ccccc2O)cc1 ?
Response: > 94.1 µM (inactive)

Prompt: One more compound: COc1ccc(CC(=O)N/N=C/c2cc([N+](=O)[O-])cc(Br)c2O)cc1
Response: > 94.1 µM (inactive)
